Assay: in vitro
Conditions: both, human, plasma
Starred links: 1 amine or outer side, 2 acyl side, 3 side chain; linkers in the order of their positions; H or OH if unused. Non-standard residues stand in square brackets, D forms with d. Residues, ends and D or L forms follow the SMILES beside them. X2 = CC(C)C[C@H](NC(=S)[C@@H](CC(C)C)N[*:1])C(=O)[*:2]; X4 = CC(C)C[C@H](N[*:1])C(=S)N1CCC[C@@H]1C(=O)[*:2]; NMeL = CN[C@@H](CC(C)C)C(=O)O
Item-by-item account of remaining at 72 h
Hi! Could you send only the number? It should be in %, unit omitted.

compound: CC(C)C[C@@H]1NC(=O)[C@H](Cc2ccc(O)cc2)NC(=O)[C@H]2CCCN2C(=O)[C@H](CC(C)C)NC(=O)[C@H](CC(C)C)NC(=O)[C@@H](CC(C)C)NC1=O [compound 10, cyclo(-D-Leu^1-Leu-Leu-D-Pro-Tyr-Leu^6-)] (cyclo(LL[dP]YL[dL]))
remaining at 72 h [%]: 4

compound: CC(C)C[C@@H]1NC(=O)[C@H](Cc2ccc(O)cc2)NC(=O)[C@H]2CCCN2C(=O)[C@H](CC(C)C)N(C)C(=O)[C@H](CC(C)C)NC(=O)[C@@H](CC(C)C)NC1=O [10i] (cyclo(L[NMeL][dP]YL[dL]))
remaining at 72 h [%]: 4

compound: CC(C)C[C@@H]1NC(=O)[C@H](Cc2ccc(O)cc2)NC(=O)[C@H]2CCCN2C(=O)[C@H](CC(C)C)NC(=O)[C@H](CC(C)C)NC(=S)[C@@H](CC(C)C)NC1=O [10a] (cyclo(L[dP]YL[X2]))
remaining at 72 h [%]: 21

get_value(item= CC(C)C[C@@H]1NC(=O)[C@@H](CC(C)C)NC(=O)[C@H](CC(C)C)N(C)C(=O)[C@H](Cc2ccc(O)cc2)NC(=O)[C@H]2CCCN2C(=O)[C@H](CC(C)C)NC1=O [10k] (cyclo(LL[dP]Y[NMeL][dL])) , readout=remaining at 72 h) returns 2.65

get_value(item= CC(C)C[C@@H]1NC(=O)[C@H](Cc2ccc(O)cc2)NC(=O)[C@H]2CCCN2C(=S)[C@H](CC(C)C)NC(=O)[C@H](CC(C)C)NC(=O)[C@@H](CC(C)C)NC1=O [10c] (cyclo(L[dL]L[X4]Y)) , readout=remaining at 72 h) returns 12

====

Experiment: in vitro
Conditions: pig, simulated intestinal fluid
Starred links: 1 amine or outer side, 2 acyl side, 3 side chain; linkers in the order of their positions; H or OH if unused. Non-standard residues stand in square brackets, D forms with d. Residues, ends and D or L forms follow the SMILES beside them. X1 = CC(C)C[C@H](NC(=S)[C@H](Cc1ccc(O)cc1)N[*:1])C(=O)[*:2]; X3 = CC(C)C[C@H](N[*:1])C(=S)N[C@H](CC(C)C)C(=O)[*:2]; X5 = CC(C)C[C@H](NC(=S)[C@H](CC(C)C)N[*:1])C(=O)[*:2]
measurement.kind: remaining at 4 h (%)
Hi! Could you send only the number? It should be in %, unit omitted.

Worked cases, answers included:
molecule: CC(C)C[C@@H]1NC(=O)[C@@H](CC(C)C)NC(=S)[C@H](CC(C)C)NC(=O)[C@H](Cc2ccc(O)cc2)NC(=O)[C@H]2CCCN2C(=O)[C@H](CC(C)C)NC1=O [10f] (cyclo(LL[dP]Y[X3]))
units.of.measure: %
remaining at 4 h: 42.9
--
molecule: CC(C)C[C@@H]1NC(=O)[C@H](Cc2ccc(O)cc2)NC(=O)[C@H]2CCCN2C(=O)[C@H](CC(C)C)NC(=O)[C@H](CC(C)C)NC(=O)[C@@H](CC(C)C)NC1=O [compound 10, cyclo(-D-Leu^1-Leu-Leu-D-Pro-Tyr-Leu^6-)] (cyclo(LL[dP]YL[dL]))
units.of.measure: %
remaining at 4 h: 12
--
molecule: CC(C)C[C@@H]1NC(=O)[C@@H](CC(C)C)NC(=O)[C@H](CC(C)C)NC(=S)[C@H](Cc2ccc(O)cc2)NC(=O)[C@H]2CCCN2C(=O)[C@H](CC(C)C)NC1=O [10e] (cyclo(LL[dP][X1][dL]))
units.of.measure: %
remaining at 4 h: 49.7

Now examine the next entry.
get_value(item= CC(C)C[C@@H]1NC(=O)[C@H](Cc2ccc(O)cc2)NC(=O)[C@H]2CCCN2C(=O)[C@H](CC(C)C)NC(=S)[C@H](CC(C)C)NC(=O)[C@@H](CC(C)C)NC1=O [10b] (cyclo(L[dL][X5][dP]Y)) , readout=remaining at 4 h) returns 32.1

====

Assay: PAMPA passive permeability;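 also: passive permeability across an artificial membrane in 96-well pre-coated PAMPA plates, which lack transporters and efflux systems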
Type: in vitro ADME
Conditions: Pe Avg
Starred links: 1 amine or outer side, 2 acyl side, 3 side chain; linkers in the order of their positions; H or OH if unused. Non-standard residues stand in square brackets, D forms with d. Residues, ends and D or L forms follow the SMILES beside them. X1 = CC(C)C[C@H](NC(=S)[C@H](Cc1ccc(O)cc1)N[*:1])C(=O)[*:2]; X13 = CC[C@H](C)[C@H](NC(=S)[C@@H]1CCCN1[*:1])C(=O)[*:2]; AlaΨ(CSNH)Ala = C[C@H](NC(=S)[C@H](C)N[*:1])C(=O)[*:2]; X2 = CC(C)C[C@H](NC(=S)[C@@H](CC(C)C)N[*:1])C(=O)[*:2]; X9 = O=C([C@@H]1CCCN1C(=S)[C@H](Cc1ccccc1)N[*:1])[*:2]; X14 = C[C@H](N[*:1])C(=S)N[C@@H](Cc1ccccc1)C(=O)[*:2]; X3 = CC(C)C[C@H](N[*:1])C(=S)N[C@H](CC(C)C)C(=O)[*:2]; X15 = CC(C)C[C@@H](NC(=S)[C@H]1CCCN1[*:1])C(=O)[*:2]; X19 = CC(C)C[C@H](NC(=S)[C@@H]1CCCN1[*:1])C(=O)[*:2]; X4 = CC(C)C[C@H](N[*:1])C(=S)N1CCC[C@@H]1C(=O)[*:2]; X16 = CC(C)C[C@H](N[*:1])C(=S)N[C@H](C)C(=O)[*:2]; NMeY = CN[C@@H](Cc1ccc(O)cc1)C(=O)O; NMeL = CN[C@@H](CC(C)C)C(=O)O; dNMeL = CN[C@H](CC(C)C)C(=O)O
Item-by-item account of Papp
Hi! Could you send only the number? It should be in ×10⁻⁶ cm/s, unit omitted.

compound: CC(C)C[C@@H]1NC(=O)[C@@H](CC(C)C)NC(=S)[C@H](CC(C)C)NC(=O)[C@H](Cc2ccc(O)cc2)NC(=O)[C@H]2CCCN2C(=O)[C@H](CC(C)C)NC1=O [10f] (cyclo(LL[dP]Y[X3]))
Papp, ×10⁻⁶ cm/s: 7.3

get_value(item= CC[C@H](C)[C@@H]1NC(=O)[C@@H]2CCCN2C(=O)[C@H]([C@@H](C)CC)NC(=O)[C@@H]2CCCN2C(=O)[C@H](Cc2ccccc2)NC(=S)[C@H](C)NC(=O)[C@H](C)NC1=O [11c] (cyclo(A[X14]PIPI)) , readout=Papp) returns 1

get_value(item= CC(C)C[C@@H]1NC(=O)[C@H](Cc2ccc(O)cc2)NC(=O)[C@H]2CCCN2C(=O)[C@H](CC(C)C)NC(=O)[C@H](CC(C)C)NC(=S)[C@@H](CC(C)C)NC1=O [10a] (cyclo(L[dP]YL[X2])) , readout=Papp) returns 10.8

get_value(item= CC(C)C[C@@H]1NC(=O)[C@@H](CC(C)C)NC(=O)[C@H](CC(C)C)NC(=O)[C@H](Cc2ccc(O)cc2)N(C)C(=O)[C@H]2CCCN2C(=O)[C@H](CC(C)C)NC1=O [10j] (cyclo(LL[dP][NMeY]L[dL])) , readout=Papp) returns 4.59

get_value(item= CC(C)C[C@@H]1NC(=O)[C@@H](CC(C)C)NC(=S)[C@H]2CCCN2C(=O)[C@H](CC(C)C)NC(=O)[C@@H](CC(C)C)NC(=O)[C@H](CC(C)C)NC(=O)[C@@H]2CCCN2C(=O)[C@@H](C)NC1=O [12c] (cyclo(L[dA]PL[dL]L[X15])) , readout=Papp) returns 1.4

get_value(item= CC[C@H](C)[C@@H]1NC(=O)[C@@H]2CCCN2C(=O)[C@H]([C@@H](C)CC)NC(=O)[C@@H]2CCCN2C(=O)[C@H](Cc2ccccc2)NC(=O)[C@H](C)NC(=S)[C@H](C)NC1=O [11b] (cyclo(FPIPI[AlaΨ(CSNH)Ala])) , readout=Papp) returns 0.4

get_value(item= CC(C)C[C@@H]1NC(=O)[C@@H](CC(C)C)NC(=O)[C@H]2CCCN2C(=S)[C@H](CC(C)C)NC(=O)[C@@H](CC(C)C)NC(=O)[C@H](CC(C)C)NC(=O)[C@@H]2CCCN2C(=O)[C@@H](C)NC1=O [12b] (cyclo(L[dL][X4][dL]L[dA]P)) , readout=Papp) returns 2.6

get_value(item= CC(C)C[C@@H]1NC(=O)[C@H](Cc2ccc(O)cc2)NC(=O)[C@H]2CCCN2C(=S)[C@H](CC(C)C)NC(=O)[C@H](CC(C)C)NC(=O)[C@@H](CC(C)C)NC1=O [10c] (cyclo(L[dL]L[X4]Y)) , readout=Papp) returns 3.1

get_value(item= CC(C)C[C@@H]1NC(=O)[C@@H]2CCCN2C(=O)[C@@H](C)NC(=S)[C@H](CC(C)C)NC(=O)[C@@H](CC(C)C)NC(=O)[C@H]2CCCN2C(=O)[C@H](CC(C)C)NC(=O)[C@@H](CC(C)C)NC1=O [12e] (cyclo([dL]L[dP][dL][X16]PL)) , readout=Papp) returns 5.7

get_value(item= CC(C)C[C@@H]1NC(=O)[C@@H](CC(C)C)NC(=O)[C@H](CC(C)C)NC(=S)[C@H](Cc2ccc(O)cc2)NC(=O)[C@H]2CCCN2C(=O)[C@H](CC(C)C)NC1=O [10e] (cyclo(LL[dP][X1][dL])) , readout=Papp) returns 7.4

get_value(item= CC[C@H](C)[C@@H]1NC(=O)[C@@H]2CCCN2C(=O)[C@H]([C@@H](C)CC)NC(=O)[C@@H]2CCCN2C(=S)[C@H](Cc2ccccc2)NC(=O)[C@H](C)NC(=O)[C@H](C)NC1=O [11d] (cyclo(AA[X9]IPI)) , readout=Papp) returns 0.4

get_value(item= CC(C)C[C@@H]1NC(=O)[C@@H](CC(C)C)N(C)C(=O)[C@H](CC(C)C)NC(=O)[C@H](Cc2ccc(O)cc2)NC(=O)[C@H]2CCCN2C(=O)[C@H](CC(C)C)NC1=O [10g] (cyclo(LL[dP]YL[dNMeL])) , readout=Papp) returns 2.75

get_value(item= CC[C@H](C)[C@@H]1NC(=O)[C@@H]2CCCN2C(=O)[C@H]([C@@H](C)CC)NC(=S)[C@@H]2CCCN2C(=O)[C@H](Cc2ccccc2)NC(=O)[C@H](C)NC(=O)[C@H](C)NC1=O [11e] (cyclo(AAF[X13]PI)) , readout=Papp) returns 0.8

get_value(item= CC(C)C[C@@H]1NC(=O)[C@@H](CC(C)C)NC(=O)[C@H]2CCCN2C(=O)[C@H](CC(C)C)NC(=O)[C@@H](CC(C)C)NC(=O)[C@H](CC(C)C)NC(=S)[C@@H]2CCCN2C(=O)[C@@H](C)NC1=O [12g] (cyclo(L[dA][X19][dL]L[dP][dL])) , readout=Papp) returns 10.2

get_value(item= CC[C@H](C)[C@@H]1NC(=O)[C@@H]2CCCN2C(=O)[C@H]([C@@H](C)CC)NC(=O)[C@@H]2CCCN2C(=O)[C@H](Cc2ccccc2)NC(=O)[C@H](C)NC(=O)[C@H](C)NC1=O [compound 11, cyclo(-Ile^1-Ala-Ala-Phe-Pro-Ile-Pro^7-)] (cyclo(AAFPIPI)) , readout=Papp) returns 0.4

get_value(item= CC(C)C[C@@H]1NC(=O)[C@@H](CC(C)C)NC(=O)[C@H](CC(C)C)N(C)C(=O)[C@H](Cc2ccc(O)cc2)NC(=O)[C@H]2CCCN2C(=O)[C@H](CC(C)C)NC1=O [10k] (cyclo(LL[dP]Y[NMeL][dL])) , readout=Papp) returns 6.13

get_value(item= CC(C)C[C@@H]1NC(=O)[C@@H](CC(C)C)NC(=O)[C@H]2CCCN2C(=O)[C@H](CC(C)C)NC(=O)[C@@H](CC(C)C)NC(=S)[C@H](CC(C)C)NC(=O)[C@@H]2CCCN2C(=O)[C@@H](C)NC1=O [12h] (cyclo([X3]L[dP][dL]L[dA]P)) , readout=Papp) returns 7.7
